# Test system: Panc02
# experiment-notes: Inhibition of cell growth in mouse Panc02 cells incubated for 72 hrs by MTT assay
# Format: functional
Provide the reported GI50 of each item.
Numbers only, in nM.

Check out these entries, answers already filled in.
CCN1C(=O)N(CC)C2C1NN=c1s/c(=C\c3cccc([N+](=O)[O-])c3)c(=O)n12 (stereo not drawn): 80
CCN1C(=O)N(CC)C2C1NN=c1s/c(=C\c3ccccc3F)c(=O)n12 (stereo not drawn): 3.2
CN1C(=O)N(C)C2C1NN=c1s/c(=C\c3ccc(Cl)cc3Cl)c(=O)n12 (stereo not drawn): 80

// batch mode: one GI50 value per listed entry
1. CCN1C(=O)N(CC)C2C1NN=c1s/c(=C\c3ccc(F)cc3)c(=O)n12 (stereo not drawn)
2. CCN1C(=O)N(CC)C2C1NN=c1s/c(=C\c3ccc([N+](=O)[O-])cc3)c(=O)n12 (stereo not drawn)
3. CCN1C(=O)N(CC)C2C1NN=c1s/c(=C\c3ccc(Br)cc3)c(=O)n12 (stereo not drawn)
4. CCN1C(=O)N(CC)C2C1NN=c1s/c(=C\c3cccc(F)c3)c(=O)n12 (stereo not drawn)

Reply:
[80, 400, 400, 80]

Task item: Any idea what its GI50 is? The compound is CCN1C(=O)N(CC)C2C1NN=c1s/c(=C\c3ccc(Cl)cc3Cl)c(=O)n12 (stereo not drawn)
Reply: 16

---

# Tested on: Panel NCI-60 (60 carcinoma cell lines)
# experiment-notes: Antiproliferative activity against human panel NCI-60 (60 carcinoma cell lines) incubated for 48 hrs by SRB assay
# Assay type: functional
# if measured GI50 < 2000 nM: Fulfilled  # else: Not fulfilled

Use the examples below as a reference point.
CCN1C(=O)N(CC)C2C1NN=c1s/c(=C\c3ccc(Cl)cc3Cl)c(=O)n12 (stereo not given): Fulfilled
CCN1C(=O)N(CC)C2C1NN=c1s/c(=C\c3ccc(C(F)(F)F)cc3)c(=O)n12 (stereo not given): Fulfilled
CN1C(=O)N(C)C2C1NN=c1s/c(=C\c3ccc(F)cc3)c(=O)n12 (stereo not given): Not fulfilled
CCN1C(=O)N(CC)C2Nn3c(s/c(=C\c4ccccc4Br)c3=O)=NC21 (stereo not given): Not fulfilled
CCN1C(=O)N(CC)C2C1NN=c1s/c(=C\c3ccc(Br)cc3)c(=O)n12 (stereo not given): Not fulfilled
CN1C(=O)N(C)C2C1NN=c1s/c(=C\c3ccccc3F)c(=O)n12 (stereo not given): Fulfilled

Task item: Dear reviewer, please state whether CCN1C(=O)N(CC)C2C1NN=c1s/c(=C\c3ccc(F)cc3)c(=O)n12 (stereo not given) has GI50 strictly beneath 2000 nM.
Reply: Fulfilled

Task item: Thanks! And CN1C(=O)N(C)C2C1NN=c1s/c(=C\c3ccc(Cl)cc3Cl)c(=O)n12 (stereo not given) ?
Reply: Fulfilled

Task item: Thanks! And CCN1C(=O)N(CC)C2C1NN=c1s/c(=C\c3ccccc3F)c(=O)n12 (stereo not given) ?
Reply: Fulfilled

Task item: Thanks! And CCN1C(=O)N(CC)C2C1NN=c1s/c(=C\c3ccc(OC)cc3)c(=O)n12 (stereo not given) ?
Reply: Not fulfilled

---

# Test system: Panel NCI-60 (60 carcinoma cell lines)
# experiment-notes: Antiproliferative activity against human panel NCI-60 (60 carcinoma cell lines) incubated for 48 hrs by SRB assay
# Format: functional
Provide the reported LC50 of each item.

Check out these entries, answers already filled in.
CCN1C(=O)N(CC)C2C1NN=c1s/c(=C\c3ccc([N+](=O)[O-])cc3)c(=O)n12 (stereo not given): > 98.6 µM
CCN1C(=O)N(CC)C2C1NN=c1s/c(=C\c3cccc(F)c3)c(=O)n12 (stereo not given): > 99.1 µM
CCN1C(=O)N(CC)C2Nn3c(s/c(=C\c4ccccc4Br)c3=O)=NC21 (stereo not given): > 95 µM
CCN1C(=O)N(CC)C2C1NN=c1s/c(=C\c3ccc(Cl)cc3Cl)c(=O)n12 (stereo not given): > 96.4 µM
CCN1C(=O)N(CC)C2C1NN=c1s/c(=C\c3ccccc3F)c(=O)n12 (stereo not given): > 95.5 µM

// batch mode: one LC50 value per listed entry
1. CCN1C(=O)N(CC)C2C1NN=c1s/c(=C\c3ccc(Br)cc3)c(=O)n12 (stereo not given)
2. CN1C(=O)N(C)C2C1NN=c1s/c(=C\c3ccc(C(F)(F)F)cc3)c(=O)n12 (stereo not given)
3. CCN1C(=O)N(CC)C2C1NN=c1s/c(=C\c3ccc(F)cc3)c(=O)n12 (stereo not given)
4. CCN1C(=O)N(CC)C2C1NN=c1s/c(=C\c3ccccc3Br)c(=O)n12 (stereo not given)
5. CCN1C(=O)N(CC)C2C1NN=c1s/c(=C\c3ccc(C(F)(F)F)cc3)c(=O)n12 (stereo not given)

Reply:
> 100 µM
> 97.7 µM
> 97.8 µM
> 87.5 µM
> 96.6 µM
